molecular target: Focal adhesion kinase 1 (Homo sapiens) (UniProt Q05397); assay: small-molecule microarray binders of FAK, primary screen, biochemical, 635/667 nm fluorescence, BSA, DTT (AID 1130); settings: PTK2 binding, 635 nm fluorescence, higher = more signal;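 note: composite of spot emission at 667 nm and signal to noise over triplicate slides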
Sequence (Q05397 whole entry, looked up): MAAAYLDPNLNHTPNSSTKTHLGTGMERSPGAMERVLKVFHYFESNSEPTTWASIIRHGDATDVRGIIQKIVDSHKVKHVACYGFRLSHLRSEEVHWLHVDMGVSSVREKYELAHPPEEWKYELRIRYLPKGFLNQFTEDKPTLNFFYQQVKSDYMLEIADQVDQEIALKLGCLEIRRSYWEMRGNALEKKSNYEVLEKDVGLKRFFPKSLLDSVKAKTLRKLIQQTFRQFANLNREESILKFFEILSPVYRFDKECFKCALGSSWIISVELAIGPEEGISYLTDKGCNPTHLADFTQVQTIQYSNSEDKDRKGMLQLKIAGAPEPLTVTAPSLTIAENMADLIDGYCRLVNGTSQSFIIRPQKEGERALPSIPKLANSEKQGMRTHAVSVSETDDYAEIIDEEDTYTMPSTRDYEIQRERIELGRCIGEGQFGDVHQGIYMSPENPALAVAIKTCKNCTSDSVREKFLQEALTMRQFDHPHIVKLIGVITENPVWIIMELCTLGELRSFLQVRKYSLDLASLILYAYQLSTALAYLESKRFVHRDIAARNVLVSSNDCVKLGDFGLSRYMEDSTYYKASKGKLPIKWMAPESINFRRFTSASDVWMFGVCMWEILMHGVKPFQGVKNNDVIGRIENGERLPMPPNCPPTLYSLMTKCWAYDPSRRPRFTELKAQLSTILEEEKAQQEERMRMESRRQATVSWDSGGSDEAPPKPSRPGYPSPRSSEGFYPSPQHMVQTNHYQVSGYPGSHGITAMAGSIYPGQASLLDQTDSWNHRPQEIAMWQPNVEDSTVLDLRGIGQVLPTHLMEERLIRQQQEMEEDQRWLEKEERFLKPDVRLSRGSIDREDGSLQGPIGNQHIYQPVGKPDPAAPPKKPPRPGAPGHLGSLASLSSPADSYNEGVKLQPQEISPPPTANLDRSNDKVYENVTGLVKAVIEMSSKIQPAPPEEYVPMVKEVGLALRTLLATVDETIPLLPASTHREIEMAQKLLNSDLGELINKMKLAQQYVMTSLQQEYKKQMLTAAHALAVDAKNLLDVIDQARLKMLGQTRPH
Reported values of composite z-score for individual entries
Could you keep your reply to the number by itself?

Known results for compounds:
>  <compound>
COc1ccc([Si](C)(C)[C@@H]2[C@@H](CC(=O)N(CCO)Cc3ccccc3)O[C@]3(C(=O)N(Cc4cccc(N5CCOC5=O)c4)c4ccccc43)[C@H]2C)cc1

>  <composite z-score>
0.139

$$$$
>  <compound>
CC(C)(C)OC(=O)CC[C@]1(C(=O)NCc2ccccc2)N=C(c2ccc(OCCCO)cc2)O[C@H]1c1ccccc1CN=[N+]=[N-]

>  <composite z-score>
-0.221

$$$$
>  <compound>
C=C(/C(=C/C[C@@H](OC(C)=O)c1cccc(OCCO)c1)c1cc(C(=O)OC)ccc1OC)C(C)C

>  <composite z-score>
0.543

$$$$
>  <compound>
COc1ccc(-c2nc(-c3ccccc3)c3c(c2C)CO[Si]3(C(C)C)C(C)C)cn1

>  <composite z-score>
0.268

$$$$

Data request: composite z-score lookup needed for C=CCC(OC(C)=O)[C@@H]1[C@@H](N(Cc2cccc3ccccc23)C(=O)c2cccc3ccccc23)c2cc(OCCCO)ccc2N1C(=O)c1ccc(-c2ccccc2)cc1 (stereo partly drawn) , thanks.
Data returned: 0.0614

Data request: Moving on to COC(=O)c1nc2oc1CC[C@@H](CO)NC(=O)N(C)Cc1cnnn1C[C@H](Cc1ccccc1)NC2=O
Data returned: -0.302

Data request: Moving on to COc1ccc([Si](C)(C)[C@H]2[C@H](CCn3cc([C@H](O)c4ccccc4)nn3)O[C@@]3(C(=O)N(Cc4ccc(N5C(=O)c6cccc7cccc5c67)cc4)c4ccccc43)[C@@H]2C)cc1
Data returned: -0.254

----------
target: Pro-neuregulin-1, membrane-bound isoform (Homo sapiens) (UniProt Q02297); assay: NRG1 binders on small-molecule microarrays, primary screen, psychiatric disease protein project, biochemical, small-molecule microarray, fluorescence 635/667 (AID 1075); details: NRG1 binding, 635 nm fluorescence, higher = more signal;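 note: score combines 667 nm spot fluorescence with signal to noise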
Sequence (Q02297 whole entry, looked up, canonical isoform): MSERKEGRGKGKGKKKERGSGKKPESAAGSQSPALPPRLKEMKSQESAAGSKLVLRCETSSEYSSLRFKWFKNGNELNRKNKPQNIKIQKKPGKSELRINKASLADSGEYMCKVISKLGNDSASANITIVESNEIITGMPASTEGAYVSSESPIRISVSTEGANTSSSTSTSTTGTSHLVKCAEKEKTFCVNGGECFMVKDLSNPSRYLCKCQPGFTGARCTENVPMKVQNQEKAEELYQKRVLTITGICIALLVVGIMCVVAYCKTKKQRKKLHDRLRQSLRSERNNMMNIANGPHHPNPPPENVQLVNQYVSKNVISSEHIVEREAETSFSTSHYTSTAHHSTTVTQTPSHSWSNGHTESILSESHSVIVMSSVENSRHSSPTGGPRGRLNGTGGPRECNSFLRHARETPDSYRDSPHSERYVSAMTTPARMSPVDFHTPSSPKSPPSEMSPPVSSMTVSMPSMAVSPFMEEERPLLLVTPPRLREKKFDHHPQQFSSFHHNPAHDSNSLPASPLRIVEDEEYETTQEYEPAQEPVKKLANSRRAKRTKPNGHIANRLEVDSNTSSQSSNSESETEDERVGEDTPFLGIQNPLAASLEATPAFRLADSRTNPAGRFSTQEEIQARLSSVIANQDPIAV
Lab note: anything with composite z-score at or over 1 counts as class 1; the rest go in class 0.

These recorded examples may help you get a feel for the data.
>  <compound>
CCOC(=O)C[C@H]1[C@H](OC(=O)c2ccccc2-c2ccccc2)[C@@H](NC(=O)c2ccc(-c3ccccc3)cc2)c2cc(OCCCO)ccc2N1C(=O)c1ccc2ccccc2n1

>  <system under test>
Pro-neuregulin-1, membrane-bound isoform (Homo sapiens) (UniProt Q02297)

>  <assigned category>
class 0

$$$$
>  <compound>
COCCOC(=O)N1C(=O)[C@@]2(c3ccccc31)[C@H](C(=O)N1CCN(c3ncccn3)CC1)[C@H]1C(=O)O[C@H](c3ccccc3)[C@H](c3ccccc3)N1[C@@H]2c1ccc(O)cc1

>  <system under test>
Pro-neuregulin-1, membrane-bound isoform (Homo sapiens) (UniProt Q02297)

>  <assigned category>
class 1

$$$$
>  <compound>
Cc1ccc(S[C@]2(C(=O)NCC(F)(F)F)CC(=O)N(Cc3ccccc3C(F)(F)F)[C@@H]2c2ccc(CO)cc2I)cc1

>  <system under test>
Pro-neuregulin-1, membrane-bound isoform (Homo sapiens) (UniProt Q02297)

>  <assigned category>
class 0

$$$$
>  <compound>
CC1CC/C=C\[C@H]2OC34C=CCN(c5ccc(Cl)cc5)C(=O)[C@H]3N(CCCCCO)C(=O)[C@]4(C)C2C(=O)O1 (stereo not given in full)

>  <system under test>
Pro-neuregulin-1, membrane-bound isoform (Homo sapiens) (UniProt Q02297)

>  <assigned category>
class 0

$$$$

Data request: Decide: is the reported value of composite z-score for CC(C)(C)OC(=O)CC[C@@]1(C(=O)NCc2ccccc2)N=C(c2ccc(OCCCO)cc2)O[C@@H]1c1ccccc1N=[N+]=[N-] equal to or greater than 1?
Data returned: class 1

Data request: Moving on to COc1cc(OC)c(C(O)C2C=CC3C(=O)N(c4ccccc4)C(=O)C3N2Nc2ccccc2)cc1Br (stereo not given)
Data returned: class 1

Data request: Moving on to O=C1O[C@H](c2ccccc2)[C@H](c2ccccc2)N2[C@H]1[C@@H](C(=O)Nc1nc3ccccc3s1)[C@]1(C(=O)Nc3ccc(C#CC4(O)CCCCCC4)cc31)[C@H]2c1ccccc1OCCO
Data returned: class 0

Data request: Moving on to COc1cc(CO)cc(I)c1O[C@H]1C=C(C(=O)NCCO)C[C@@H](NCc2ccc(F)cc2)[C@@H]1O
Data returned: class 0

Data request: Moving on to C=CCN1Cc2ccccc2[C@H]2OC(c3ccc(OCCCO)cc3)=N[C@@]2(CC=C)C1=O
Data returned: class 1
